Assay: Determination of S from retention time shift Δ relative to P3 at two gradient slopes, nano-RP-HPLC MS of spiked tryptic digest
Assay type: physicochemical
Settings: experimental S, LC-MS runs of model peptide mixture, formic acid
Description: Proteins and protein digestion. Tryptic digests of two different protein mixtures were utilized. The “test peptide mixture” contained human proteins: albumin, transferrin, fibrinogen. The “model peptide mixture” contained bovine proteins: albumin, transferrin, fibrinogen, catalase. […] Chromatography. […] The dead volume of the column and connecting tubings was determined by injecting a non-retained compound (water) and measuring the elution time of the negative peak at a 150 μL/min flow rate. […]
// Slope (experimental) lookup, one value per entry

# substance, Slope (experimental)
measured = [
    ("CGLVPVLAENRK", 30.745),
    ("TGQIFK", 24.984),
    ("SHCIAEVEK", 41.223),
    ("VHKECCHGDLLECADDR [fragment from bovine albumin]", 42.014),
    ("AAQKPDVLTTGGGNPVGDKLNSLTVGPR", 41.986),
    ("WCTISTHEANK", 37.234),
    ("DDPHACYSTVFDK", 32.575),
    ("TCVADESHAGCEK", 47.601),
    ("KQTALVELLK", 27.642),
    ("ESKPPDSSKDECMVK", 48.845),
    ("DQTVIQNTDGNNNEAWAK", 34.721),
    ("QSPVDIDTK", 31.703),
    ("DALLFPSFIHSQKR", 30.728),
    ("DSADGFLK", 22.49),
    ("KANEGLTWNSLK", 31.085),
    ("EDGGGWWVYNR", 23.696),
    ("KNYELLCGDNTR", 33.631),
    ("GRQNQVQDNENVVNEYSSHLEK", 42.444),
]
